molecular target: IRAK4 (Homo sapiens, UniProt Q9NWZ3); construct: endogenous in cells; host or cells: Karpas299; experiment: IRAK4 Degradation Assay with Human Serum (Karpas299, HTRF/TR-FRET); type: cell-based; settings: Karpas-299 in human serum, 24 hrs treatment; read-out: IRAK4 degradtion with human serum assay DC50
Consider the following molecules; for each one, report its DC50.
Give the value, in units of µM, as a plain number.

What does the data say about its DC50? Entry: "CC(C)(O)c1cc2nn(C3CCN([C@@H]4CCN(C5CN(c6cc(F)c([C@H]7CCC(=O)NC7=O)c(F)c6)C5)CC4(F)F)CC3)cc2cc1NC(=O)c1ccc2cc(C#N)cnn12"
0.014

What does the data say about its DC50? Entry: Cc1cc(C2CCC(=O)NC2=O)c(F)cc1[C@H]1C[C@@H](N2CCN([C@H]3CC[C@H](n4cc5cc(NC(=O)c6ccc7cc(C#N)cnn67)c(C(C)(C)O)cc5n4)CC3)CC2)C1 (some centres unmarked)
0.018

What does the data say about its DC50? Entry: "N#Cc1cnn2c(C(=O)Nc3cc4cn([C@H]5CC[C@H](N6CCN(C(=O)C7CN(c8cc(F)c([C@H]9CCC(=O)NC9=O)c(F)c8)C7)CC6)CC5)nc4c4c3OCO4)ccc2c1"
0.075

What does the data say about its DC50? Entry: "CC(C)(O)c1cc2nn([C@H]3CC[C@H](N4CCN(CC5CN(c6cc(F)c([C@H]7CCC(=O)NC7=O)c(F)c6)C5)CC4)CC3)cc2cc1NC(=O)c1ccc2n1NCC(C#N)=C2"
0.012

What does the data say about its DC50? Entry: CC(C)(O)c1cc2nn([C@H]3CC[C@H](N4CCN(CCNc5cc(F)c(C6CCC(=O)NC6=O)c(F)c5)CC4)CC3)cc2cc1NC(=O)c1ccc2cc(C#N)cnn12 (some centres unmarked)
0.0071

###

Target: IRAK4 (Homo sapiens, UniProt Q9NWZ3)
Construct: endogenous in cells; host or cells: Karpas299
Sequence (Q9NWZ3 1-460): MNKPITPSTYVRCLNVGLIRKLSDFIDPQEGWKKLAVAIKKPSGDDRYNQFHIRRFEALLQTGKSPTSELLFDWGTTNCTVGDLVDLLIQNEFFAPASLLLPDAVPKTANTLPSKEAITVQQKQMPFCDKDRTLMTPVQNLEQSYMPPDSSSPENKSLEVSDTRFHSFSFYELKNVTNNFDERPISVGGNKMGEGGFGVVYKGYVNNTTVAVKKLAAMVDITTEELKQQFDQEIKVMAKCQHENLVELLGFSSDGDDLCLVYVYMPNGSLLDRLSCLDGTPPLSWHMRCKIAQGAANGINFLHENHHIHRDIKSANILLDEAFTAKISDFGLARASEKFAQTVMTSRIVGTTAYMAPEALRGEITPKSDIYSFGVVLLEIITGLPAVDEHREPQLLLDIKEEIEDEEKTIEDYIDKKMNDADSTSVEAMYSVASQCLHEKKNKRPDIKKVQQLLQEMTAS
Assay: IRAK4 Degradation Assay (Karpas299, HTRF/TR-FRET)
Format: cell-based
Conditions: Karpas-299 cells, 24 h treatment; maximum percentage of degradation; read-out: IRAK4 in Karpas-299 (24 h) Dmax (%)
quantity: Dmax
Could you give the number and then its unit, please?

Item "O=C1CC[C@H](c2c(F)cc(N3CC[C@@H](C(=O)N4CCN([C@H]5CC[C@H](n6cc(NC(=O)c7cnn(-c8ccnc(NCC(F)(F)F)c8)n7)c(C(F)F)n6)CC5)CC4)C3)cc2F)C(=O)N1" with IRAK4 (Homo sapiens, UniProt Q9NWZ3) - Dmax?
96%

Item Cn1c(=O)n(C2CCC(=O)NC2=O)c2cccc(CCCN3CCN(C45CC(n6cc7cc(NC(=O)c8ccc9cc(C#N)cnn89)c(C(C)(C)O)cc7n6)(C4)C5)CC3)c21 (stereo not drawn) with IRAK4 (Homo sapiens, UniProt Q9NWZ3) - Dmax?
89%

Item "CC(C)(O)c1cc2nn([C@H]3CC[C@H](N4CCN(C(=O)C5CN(c6ccc(N7CCC(=O)NC7=O)cc6)C5)CC4)CC3)cc2cc1NC(=O)c1cccc(C(F)(F)F)n1" with IRAK4 (Homo sapiens, UniProt Q9NWZ3) - Dmax?
99%

Values compiled from patent US20250195513A1.
